Recorded measurements of Ki, one per entry
# protocol-details: The compound was evaluated for binding affinity against Opioid receptor delta 1 in guinea pig brain membrane using [3H]- DPDPE as ligand

>  <structure-string>
Oc1ccc2c3c1O[C@H]1c4[nH]c5ccccc5c4C[C@H]4C(C2)N(CCc2ccccc2)CC[C@]314

>  <Ki [µM]>
0.022

$$$$
>  <structure-string>
Oc1ccc2c3c1O[C@H]1c4[nH]c5ccccc5c4C[C@@]4(O)C(C2)NCC[C@]314

>  <Ki [µM]>
0.011

$$$$
>  <structure-string>
Oc1ccc2c3c1O[C@H]1c4[nH]c5ccccc5c4C[C@@]4(O)C(C2)N(CCc2ccccc2)CC[C@]314

>  <Ki [µM]>
0.011

$$$$
>  <structure-string>
Oc1ccc2c3c1O[C@H]1c4[nH]c5ccccc5c4C[C@H]4C(C2)NCC[C@]314

>  <Ki [µM]>
0.935

$$$$

These measurements were taken from BindingDB's records for doi:10.1021/jm00101a009.
